Ref: PubChem BioAssay (NCI)

# Test system: HCT-15 colon
# assayProcedure: NCI-60 one-dose screen, 48 h (100 = growth as untreated, 0 = no growth, -100 = all killed)
# measurementConditions: 10 µM unless noted
About 83,000 compounds went through this panel and 20% of them were active in at least one assay; those are over-represented in the sample as a whole.
observable: growth (%)

compound=Cc1ccc(-c2csc(N/N=C/c3nc4ccccc4n3C3CC3)n2)cc1 observable=growth measuredvalue=80.6
compound="CCCC(=O)NC(c1cccnc1)c1cc(Cl)c2cccnc2c1O (stereo not given)" observable=growth measuredvalue=18.5
compound=NC(=O)C(=Cc1ccc(Cl)cc1)C(N)=O observable=growth measuredvalue=36.6
compound="C/C(=C(/C)C1CC1CCN(C(=O)c1ccc([N+](=O)[O-])cc1)S(=O)(=O)c1ccc(C)cc1)C1CCCCC1 (stereo not given)" observable=growth measuredvalue=98.1
compound=O=C1c2c(c3c4cc(Br)ccc4[nH]c3c3ccc4ccccc4c23)C(=O)N1CCN1CCCCC1 observable=growth measuredvalue=-60
compound=O=C1c2c(c3c4cccnc4[nH]c3c3ccc4ccccc4c23)C(=O)N1CCN1CCNCC1 observable=growth measuredvalue=3.44
compound=C#CCOc1ccc(/C=N/Nc2nc(-c3cc(Cl)ccc3Cl)cs2)cc1 observable=growth measuredvalue=81.7
compound=CCCCCCNC(=O)Oc1ccc(/C(=C(\C)c2ccc(OC)cc2)c2ccc(OCCN(C)C)cc2)cc1 observable=growth measuredvalue=30.8
compound=CC1CCN(S(=O)(=O)c2ncsc2-c2ccccc2)CC1 observable=growth measuredvalue=79
compound=COc1ccc(OC)c([C@H]2c3[nH]c4ccccc4c3C[C@H]3C(=O)N(CCCCCCC(=O)NO)CC(=O)N23)c1 observable=growth measuredvalue=99.5

* * *

# System: HT29 colon
# assayProcedure: NCI-60 one-dose screen, 48 h (100 = growth as untreated, 0 = no growth, -100 = all killed)
# measurementConditions: 10 µM unless noted
About 83,000 compounds went through this panel and 20% of them were active in at least one assay; those are over-represented in the sample as a whole.
# growth per entry
observable: growth (%)

chemicalstring=O=C1[C@H]2Cc3c([nH]c4ccccc34)[C@@H](c3c(Cl)cccc3Cl)N2C(=O)CN1C1CCN(Cc2ccccc2)CC1 testedsystem="HT29 colon" unitofmeasurement=% measuredvalue=9.36
chemicalstring=COC(=O)Nc1ccc(-c2nc(-c3cccc(O)c3)c(-c3ccnc(Br)c3)[nH]2)cc1 testedsystem="HT29 colon" unitofmeasurement=% measuredvalue=73.7
chemicalstring=COc1ccc(-c2nc3cc(Cl)c(Cl)cc3n2CC(=O)N=Nc2c(O)[nH]c3ccc(Br)cc23)cc1 testedsystem="HT29 colon" unitofmeasurement=% measuredvalue=-24
chemicalstring=COc1ccc2c(c1)c(-c1nn3c(=O)cc(-c4ccccc4)nc3s1)cn2C testedsystem="HT29 colon" unitofmeasurement=% measuredvalue=10.5
chemicalstring=COc1ccc([C@@H]2[C@@H](O)C(=O)N2c2cc(OC)c(OC)c(OC)c2)cc1Cl testedsystem="HT29 colon" unitofmeasurement=% measuredvalue=12.8
chemicalstring=Cn1c2ccc(Br)cc2c2c3c(c4c5cc(F)ccc5oc4c21)C(=O)N(O)C3=O testedsystem="HT29 colon" unitofmeasurement=% measuredvalue=101
chemicalstring=Oc1ccc(CSc2nnc(-c3ccc(Cl)cc3)o2)c2cccnc12 testedsystem="HT29 colon" unitofmeasurement=% measuredvalue=102
chemicalstring=O=C1c2c(c3c4ccc(Br)cc4oc3c3[nH]c4ccccc4c23)C(=O)N1CCO testedsystem="HT29 colon" unitofmeasurement=% measuredvalue=58.3
chemicalstring=Cc1ccc(NC(=O)c2cc(/C=C/C(=O)NO)cc(C(F)(F)F)c2)cc1Nc1nccc(-c2cccnc2)n1 testedsystem="HT29 colon" unitofmeasurement=% measuredvalue=7.3

* * *

# Test system: SK-MEL-28 melanoma
# assayProcedure: NCI-60 one-dose screen, 48 h
# measurementConditions: 10 µM unless noted
The panel holds about 83,000 compounds, 20% with a hit somewhere; the sample as a whole holds those more often. Active and inactive are the calls of the source. The calls were made as follows: active = growth percent below 10; inactive = the rest.
Labels: 1 for active, 0 for inactive

chemicalstring=C#Cc1ccc(NC(=O)c2ccc(/C=C/C(=O)c3nccn3C)cc2)c(F)c1 testedsystem="SK-MEL-28 melanoma" answerlabel=0
chemicalstring=CCOC(=O)c1nn(-c2ccc(C)cc2)c(=O)c2c(N)c(C#N)c(-c3ccc(OC)cc3)cc12 testedsystem="SK-MEL-28 melanoma" answerlabel=0
chemicalstring=CNC(=O)c1cc(Oc2ccc3nc(NC(=O)c4cc(C)cc(C)c4)sc3c2)ccn1 testedsystem="SK-MEL-28 melanoma" answerlabel=0
chemicalstring=CC(=O)Nc1ccc(NC(=O)Nc2cccc(-c3nc(-c4ccc(NC(=O)c5cccnc5)cc4Cl)no3)c2)cc1C(F)(F)F testedsystem="SK-MEL-28 melanoma" answerlabel=1
chemicalstring=Cc1ccc(-c2cc3nc(C(Cl)Cl)nc(-c4ccccc4)n3n2)cc1 testedsystem="SK-MEL-28 melanoma" answerlabel=0

* * *

# Tested on: ACHN renal
# assayProcedure: NCI-60 one-dose screen, 48 h (100 = growth as untreated, 0 = no growth, -100 = all killed)
# measurementConditions: 10 µM unless noted
The panel holds about 83,000 compounds, 20% with a hit somewhere; the sample as a whole holds those more often.
Response field label: string, one of Criterion met (growth strictly below 40%) or Criterion not met.

molecule=Oc1ccc(CSc2nnc(-c3ccccc3)o2)c2cccnc12 testedsystem="ACHN renal" answerlabel="Criterion met"
molecule=CCOC(=O)c1c(NC(=O)c2ccc(C(C)(C)C)cc2)sc2cc(OCCN3CCCCC3)ccc12 testedsystem="ACHN renal" answerlabel="Criterion not met"
molecule=CCNCc1c(-c2cccc(OC(F)(F)F)c2)[nH]c2ccc(N3CCCC3)cc2c1=O testedsystem="ACHN renal" answerlabel="Criterion met"
molecule=N#C/C(=C\c1ccc2ccccc2c1)C(=O)Nc1sc2c(c1C#N)CCC2 testedsystem="ACHN renal" answerlabel="Criterion not met"
molecule="CCN1C(=O)N(CC)C2SC(N/N=C/C=C/c3ccccc3OC)=NC21 (stereo not given)" testedsystem="ACHN renal" answerlabel="Criterion met"
molecule=O=C(NNc1nc2cc(F)cc(F)c2n2cccc12)c1ccncn1 testedsystem="ACHN renal" answerlabel="Criterion met"
molecule=COc1ccc([C@@H]2[C@@H](O)C(=O)N2c2cc(OC)c(OC)c(OC)c2)cc1Cl testedsystem="ACHN renal" answerlabel="Criterion met"
molecule=Oc1ccc(-c2nnc(SCc3ccc(O)c4ncccc34)o2)cc1 testedsystem="ACHN renal" answerlabel="Criterion met"
molecule=O=C1[C@H]2Cc3c([nH]c4ccccc34)[C@@H](c3ccc(Cl)cc3)N2C(=O)CN1C1CCN(Cc2c(Cl)cccc2Cl)CC1 testedsystem="ACHN renal" answerlabel="Criterion met"
molecule=O=C(Nc1cc(F)cc2cccnc12)c1cnc(N2CCOCC2)cn1 testedsystem="ACHN renal" answerlabel="Criterion met"
molecule=COc1ccc(/C(C)=C(\c2ccc(Cl)cc2)c2ccc(OCCN)cc2)cc1 testedsystem="ACHN renal" answerlabel="Criterion not met"
molecule=O=C(CCCCCCN1CC(=O)N2[C@@H](c3ccccc3)c3[nH]c4ccccc4c3C[C@H]2C1=O)NO testedsystem="ACHN renal" answerlabel="Criterion not met"
molecule=Cn1cc(-c2nnc(N)nc2-c2cn(C)c3ccc(F)cc23)c2cc(F)ccc21 testedsystem="ACHN renal" answerlabel="Criterion not met"
molecule="CCN1C(=O)N(CC)C2SC(N/N=C/c3ccccc3)=NC21 (stereo not given)" testedsystem="ACHN renal" answerlabel="Criterion met"
molecule=C#C[C@]1(O)CC[C@H]2[C@@H]3CC=C4c5sc(Nc6ccncc6)nc5CC[C@]4(C)[C@H]3CC[C@@]21C testedsystem="ACHN renal" answerlabel="Criterion met"
molecule=CCOC(=O)c1c(NCC(=O)Nc2cccc([N+](=O)[O-])c2)sc2c1CCCC2 testedsystem="ACHN renal" answerlabel="Criterion met"
molecule=COc1ccc2c(ccn2C(=O)N2c3ccccc3Sc3ccccc32)c1 testedsystem="ACHN renal" answerlabel="Criterion not met"
molecule="COc1ccc(C2CC(c3ccc(Nc4nc(NCCO)nc(Nc5ccc(Cl)cc5)n4)cc3)=Nc3c(N)nc(N)nc3N2)cc1 (stereo not given)" testedsystem="ACHN renal" answerlabel="Criterion not met"
molecule=O=C(C[n+]1ccnc2ccccc21)c1ccc(O)c(O)c1 testedsystem="ACHN renal" answerlabel="Criterion met"
molecule=CCN(CC)CCN1C(=O)c2c(c3c4cccnc4[nH]c3c3ccc4ccccc4c23)C1=O testedsystem="ACHN renal" answerlabel="Criterion met"

* * *

# Tested on: OVCAR-5 ovarian
# assayProcedure: NCI-60 one-dose screen, 48 h
# measurementConditions: 10 µM unless noted
About 83,000 compounds went through this panel and 20% of them were active in at least one assay; those are over-represented in the sample as a whole. Activity calls are given as the source filed them. Rule for the calls: active = growth percent below 10; inactive = the rest.
Labels: t = active, f = inactive

compound=O=C1Nc2ccc(Cl)cc2/C1=C/c1ccc(OCc2ccc(F)cc2)cc1 answerlabel=f
compound=COc1cnc2c(c1)C(=O)c1c-2n(CCCNCC2CC2)c(=O)c2cc(F)ccc12 answerlabel=t
compound=CC[C@H](C)[C@H]1NC(=O)[C@@H]([C@H](O)C(C)C)NC(=O)[C@@H](C)N(C)C(=O)[C@H](C)N(C)C(=O)[C@H](CC(C)C)NC(=O)[C@H](CC(C)C)N(C)C(=O)[C@H](C)N(C)C1=O answerlabel=t
compound="CCCCCCCCCC[C@@H](C)[C@@H]1CC(=O)N[C@H]([C@@H](C)O)C(=O)N[C@@H](C)C(=O)N[C@H](C)C(=O)N[C@@H](CCC(N)=O)C(=O)N[C@H](Cc2ccc(O)cc2)C(=O)N[C@@H](C(C)CC)C(=O)O1 (some centres not stated)" answerlabel=f
compound="COc1cc(C2=NN(C(C)=O)C(c3ccc(N4CCOCC4)cc3)C2)cc(OC)c1OC (configuration not stated)" answerlabel=f
compound=COc1ccc(N2CCN(C(=O)CSc3ccc(-c4nc5cc(C)c(C)cc5[nH]4)cn3)CC2)cc1 answerlabel=f
compound=CNC(=O)c1cc(Oc2ccc3nc(NC(=O)c4ccc(CN5CCN(C)CC5)c(C(F)(F)F)c4)sc3c2)ccn1 answerlabel=f
compound=C#C[C@]1(O)CC[C@H]2[C@@H]3CC=C4c5sc(Nc6ccncc6)nc5CC[C@]4(C)[C@H]3CC[C@@]21C answerlabel=f
compound=O=S(=O)(Nc1cc(Cl)cc(Cl)c1)c1ccc(-c2cnc(C3CC3)o2)cc1 answerlabel=f
compound=N/C(=N\OC(=O)CSc1nc2ccccc2s1)c1ccc2ccccc2c1 answerlabel=f
compound=C(=C(\C1=NCCN1)n1cnc2ccccc21)/c1ccc2ccccc2c1 answerlabel=f
compound=C#C[C@]1(O)CC[C@H]2[C@@H]3CC=C4c5sc(Nc6cc(Cl)ccn6)nc5CC[C@]4(C)[C@H]3CC[C@@]21C answerlabel=f
compound=CCOC(=O)c1nn(-c2ccc(C)cc2)c(=O)c2c(N)c(C#N)c(-c3ccc(OC)cc3)cc12 answerlabel=f
compound=COc1cc(CNC(=O)/C=C/c2ccccc2)ccc1OCC(=O)NO answerlabel=f
compound=CN(c1ccc(Cl)cc1)S(=O)(=O)c1ccc(-c2cnc(C3CC3)o2)cc1 answerlabel=f
compound=COc1cc(O)c2c(c1)/C=C/C[C@H](O)[C@H](O)C(=O)/C=C\C[C@H](C)OC2=O answerlabel=t
compound=Fc1ccccc1/C=C(/C1=NCCN1)n1cnc2ccccc21 answerlabel=f
